- System: Thalamus
- methodNotes: Drug uptake in anesthetized cynomolgus monkey brain thalamus after 135 mins postinjection
- Format: ADME, organism-based, Macaca fascicularis
- Design: unit not given here
- setupConditions: in vivo, 2.25 h
Returns: string. Value is Fulfilled if measured Drug uptake is below 4, and Not fulfilled if it is greater than or equal to it.

O=C(OCCC[18F])C1C2CCC(CC1c1cccc(/C=C\Br)c1)N2 (stereo not given) :: Not fulfilled

Let us examine a further case.
API: query returns whether the compound falls strictly under 4 in Drug uptake. Query: O=C(OCC[18F])C1C2CCC(CC1c1cccc(/C=C\I)c1)N2 (stereo not given)
Fulfilled
